Assay: Comparative pharmacokinetic analysis after a single intravenous dose
Settings: Balb/C, mouse, plasma, iv, 1 mg/kg
Endpoint label: clearance (L/h/kg)
Give bare numbers, in L/h/kg.

Note to self: clearance recorded for CC(C)OC(=O)NNC(=O)c1ccncc1.Cl [prodrug 1d] was 107

---

Assay: Bioconversion of prodrugs in plasma, ex vivo (human)
Conditions: 200 μg/mL, 37 °C, ex vivo
Endpoint label: % of prodrug remaining at 20 h, human plasma (%)
Give bare numbers, in %.

Example entries and their recorded answers appear below.
COC(=O)NNC(=O)c1ccncc1.Cl [prodrug 1a]	40.1
CC(C)OC(=O)NNC(=O)c1ccncc1.Cl [prodrug 1d]	40.1
CCOC(=O)NNC(=O)c1ccncc1.Cl [prodrug 1b]	47.5

Query molecule follows.
% of prodrug remaining at 20 h, human plasma reading for CCC(C)OC(=O)NNC(=O)c1ccncc1.Cl (stereo not shown) [prodrug 1i] : 89.1

---

Test: Bioconversion of prodrugs in plasma, ex vivo (mice)
Conditions: 200 μg/mL, 20 h ex vivo incubation
Lab note: anything with eAUC20m–20h in mice plasma, prodrug below 1000 ng·h/mL is marked satisfied; values at 1000 ng·h/mL or higher are marked not satisfied.

Here's what some known entries look like.
CCOC(=O)NNC(=O)c1ccncc1.Cl [prodrug 1b]	not satisfied
Cl.O=C(NNC(=O)c1ccncc1)OCc1ccccc1 [prodrug 1h]	satisfied
CCCCOC(=O)NNC(=O)c1ccncc1.Cl [prodrug 1e]	satisfied

Bench note: check whether Cl.O=C(NNC(=O)c1ccncc1)Oc1ccccc1 [prodrug 1j] shows eAUC20m–20h in mice plasma, prodrug below 1000 ng·h/mL
not satisfied

Is eAUC20m–20h in mice plasma, prodrug strictly under 1000 ng·h/mL for the entry CCCOC(=O)NNC(=O)c1ccncc1.Cl [prodrug 1c] ?
satisfied

Identify whether the compound COC(=O)NNC(=O)c1ccncc1.Cl [prodrug 1a] records eAUC20m–20h in mice plasma, prodrug below 1000 ng·h/mL.
not satisfied

Hello, I'm reviewing records and need to know if eAUC20m–20h in mice plasma, prodrug of CCC(C)OC(=O)NNC(=O)c1ccncc1.Cl (stereo not shown) [prodrug 1i] is below 1000 ng·h/mL. Could you check?
not satisfied

Please determine if C=CCOC(=O)NNC(=O)c1ccncc1.Cl [prodrug 1g] is below 1000 ng·h/mL in terms of eAUC20m–20h in mice plasma, prodrug.
satisfied

Criterion: eAUC20m–20h in mice plasma, prodrug strictly below 1000 ng·h/mL. Is it met by CC(C)COC(=O)NNC(=O)c1ccncc1.Cl [prodrug 1f] ?
satisfied

---

Assay: Bioconversion of prodrugs in plasma, ex vivo (mice)
Settings: 200 μg/mL, 37 °C, ex vivo
Would you mind telling me the reported % of prodrug remaining at 20 h, mice plasma of each entry?
Answers are plain numbers, in %.

Some entries whose results are on file:
CCOC(=O)NNC(=O)c1ccncc1.Cl [prodrug 1b]	13.8
CC(C)COC(=O)NNC(=O)c1ccncc1.Cl [prodrug 1f]	13.2
CC(C)OC(=O)NNC(=O)c1ccncc1.Cl [prodrug 1d]	23.8
Cl.O=C(NNC(=O)c1ccncc1)Oc1ccccc1 [prodrug 1j]	85.5

For every record below, what is its % of prodrug remaining at 20 h, mice plasma?
1. COC(=O)NNC(=O)c1ccncc1.Cl [prodrug 1a]
2. CCC(C)OC(=O)NNC(=O)c1ccncc1.Cl (stereo not drawn) [prodrug 1i]

70.5
63.8

---

Test: Bioconversion of prodrugs in plasma, ex vivo (human)
Conditions: 200 μg/mL, 20 h ex vivo incubation
Field 'label' (enum: YES / NO). Set to YES when eAUC20m–20h in human plasma, prodrug is strictly under 900 ng·h/mL; else NO.

# count of solved cases: 4
C=CCOC(=O)NNC(=O)c1ccncc1.Cl [prodrug 1g]	YES
CC(C)OC(=O)NNC(=O)c1ccncc1.Cl [prodrug 1d]	NO
CCOC(=O)NNC(=O)c1ccncc1.Cl [prodrug 1b]	NO
Cl.O=C(NNC(=O)c1ccncc1)OCc1ccccc1 [prodrug 1h]	YES

Does the reported eAUC20m–20h in human plasma, prodrug of CC(C)COC(=O)NNC(=O)c1ccncc1.Cl [prodrug 1f] stay below 900 ng·h/mL?
YES

Lab note: eAUC20m–20h in human plasma, prodrug threshold 900 ng·h/mL. Does this molecule come in strictly under it? COC(=O)NNC(=O)c1ccncc1.Cl [prodrug 1a]
NO

---

Assay: Complete pharmacokinetic analysis after a single oral dose
Conditions: Balb/C, mouse, plasma, po, 10 mg/kg of INH (prodrugs at molar equivalent)
Endpoint label: concentration at 0.33 h

// below: answered compounds
COC(=O)NNC(=O)c1ccncc1.Cl [prodrug 1a]	148000 ng/mL
CC(C)OC(=O)NNC(=O)c1ccncc1.Cl [prodrug 1d]	18700 ng/mL

# compound Cl.O=C(NNC(=O)c1ccncc1)OCc1ccccc1 [prodrug 1h] ; its concentration at 0.33 h = 6130 ng/mL

---

Test: Chemical stability in neat DMSO (UV spectrophotometer)
Settings: post 24 h of incubation
Please respond with reported chemical stability, DMSO: percentage of parent remaining for every item in the list.
Give bare numbers, in %.

Would you mind listing chemical stability, DMSO: percentage of parent remaining for each of the following compounds?
1. NNC(=O)c1ccncc1 [INH, Isoniazid, reference compound]
2. CCCCOC(=O)NNC(=O)c1ccncc1.Cl [prodrug 1e]
3. C=CCOC(=O)NNC(=O)c1ccncc1.Cl [prodrug 1g]
4. CC(C)OC(=O)NNC(=O)c1ccncc1.Cl [prodrug 1d]
5. CCOC(=O)NNC(=O)c1ccncc1.Cl [prodrug 1b]
6. COC(=O)NNC(=O)c1ccncc1.Cl [prodrug 1a]

[100.0, 100.0, 100.0, 100.0, 100.0, 100.0]

---

Assay: Comparative plasma exposure after a single oral dose at three incremental dose levels
Conditions: Balb/C, mouse, plasma, po, 1 mg/kg
Endpoint label: concentration at 2 h (ng/mL)
Numbers only, in ng/mL.

Field concentration at 2 h (entry CC(C)OC(=O)NNC(=O)c1ccncc1.Cl [prodrug 1d] ) reads 332

---

Test: Bioconversion of prodrugs in plasma, ex vivo (human)
Details: 200 μg/mL, 20 h ex vivo incubation
Endpoint label: eAUC20m–20h in human plasma, prodrug (ng·h/mL)
Give bare numbers, in ng·h/mL.

Cl.O=C(NNC(=O)c1ccncc1)Oc1ccccc1 [prodrug 1j]	752
CCC(C)OC(=O)NNC(=O)c1ccncc1.Cl (stereo not shown) [prodrug 1i]	2788
CCCCOC(=O)NNC(=O)c1ccncc1.Cl [prodrug 1e]	640

Consider now this further compound.
eAUC20m–20h in human plasma, prodrug in this record for CCCOC(=O)NNC(=O)c1ccncc1.Cl [prodrug 1c] : 860
